Just for reference, BindingDB's records for doi:10.1021/acs.jnatprod.9b00648 is where these values come from.

assay: Inhibition of VEGFR2 in HUVEC assessed as inhibition of VEGF-induced tube formation incubated for 8 hrs by inverted microscopic method
Attribute Measured: pIC50
One number for each entry, as −log10 of the molar value.

Requested field: pIC50. Item: C/C=C(\C)C(=O)O[C@@H]1C2=C(C)C(=O)N[C@]2(O)C[C@@]2(C)O[C@@H]2CC[C@@]2(C)O[C@H]12
4.39
